assaySystem: P. falciparum apicoplast DNA polymerase (Pf-apPOL) (Plasmodium falciparum, UniProt Q8ILY1)
Sequence (Q8ILY1 entry or part of it): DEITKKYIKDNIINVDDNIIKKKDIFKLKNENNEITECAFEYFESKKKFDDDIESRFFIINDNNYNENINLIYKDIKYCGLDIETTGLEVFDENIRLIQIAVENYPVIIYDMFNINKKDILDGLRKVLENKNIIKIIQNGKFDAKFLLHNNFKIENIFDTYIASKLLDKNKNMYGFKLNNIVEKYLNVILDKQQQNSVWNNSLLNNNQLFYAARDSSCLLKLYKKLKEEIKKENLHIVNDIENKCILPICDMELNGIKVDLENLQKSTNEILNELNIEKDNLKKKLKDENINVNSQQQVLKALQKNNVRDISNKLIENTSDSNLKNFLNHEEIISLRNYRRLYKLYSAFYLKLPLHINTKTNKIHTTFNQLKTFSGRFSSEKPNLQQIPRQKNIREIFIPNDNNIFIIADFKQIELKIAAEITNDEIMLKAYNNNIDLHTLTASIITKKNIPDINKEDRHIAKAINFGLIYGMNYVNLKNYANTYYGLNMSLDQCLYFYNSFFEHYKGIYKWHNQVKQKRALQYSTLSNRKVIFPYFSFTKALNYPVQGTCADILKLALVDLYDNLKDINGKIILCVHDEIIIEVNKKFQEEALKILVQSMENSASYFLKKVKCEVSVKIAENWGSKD
experiment: Fluorescence-based high-throughput DNA polymerase assay (molecular beacon), primary screen and dose-response
Type: biochemical
conditionInfo: DRC-2, 5', concentration 10
endpointLabel: % inhibition Apo pol 5' (%)
Provide the reading as a plain figure in %.

compound	% inhibition Apo pol 5' / %
O=C(Nc1ncc([N+](=O)[O-])s1)c1ccc2c(c1)C(=O)N(N1C(=O)c3ccccc3C1=O)C2=O [KU0026378]	25
CN(C)C=CC(=O)c1ccccn1 [Molecule 64, CN(C=CC(=O)c1ccccn1)C]	34
O=C(Nc1nnc(-c2ccno2)o1)c1ccc2ncsc2c1 [Molecule 62, O=C(c1ccc2c(c1)scn2)Nc1nnc(o1)c1ccno1]	38
CO/N=C(\C(=O)N[C@@H]1C(=O)N2C(C(=O)[O-])=C(CSc3nc(=O)c([O-])nn3C)CSC12)c1csc(N)n1.[Na+].[Na+] (some centres unmarked) [Molecule 83]	18

Prompt: GET /values?readout=% inhibition Apo pol 5'&item= O=C(O)c1c(F)c(F)c(-c2c(F)c(F)c(C(=O)O)c(F)c2F)c(F)c1F [KU0008974]
Response: 17
